Test: Primary qHTS for inhibitors of nuclear receptor binding SET domain protein 2 (NSD2) in an isogenic RCH-ACV NSD2 p.E1099K mutant (9B) (AID 1645876); note: nearly all actives have a fitted effect of over 70% in size
Settings: RCH-ACV (leukaemia line) NSD2 E1099K (9B) viability, CellTiter-Glo, 72 h; series mostly up to 44.9 µM
Records with an inconclusive call do not appear. Active and inactive are the calls of the source. Calls come from the whole dose curve; as a rule, active = well fitted inhibition curve with a large enough effect; inconclusive = small, poorly fitted or top-dose-only effect; inactive = flat fitted curve, though single readings scatter.
// classify into t (active), f (inactive)

Returns: the outcome recorded for CCS(=O)(=O)N(Cc1cccnc1)c1cccc(-c2ccc(C#N)cc2)c1 in this assay.
t

Kindly provide the recorded test outcome for the following compound: COc1ccc2c(c1)CC[C@@H]1[C@@H]2CC[C@]2(C)[C@@H](NCCCCCCN3C(=O)C=CC3=O)CC[C@@H]12
t

I would be grateful if you could indicate the recorded call for CSc1nc(N)cc(Oc2ccc(-c3nc(Nc4cccc(C(F)(F)F)c4)n[nH]3)cc2)n1 .
t

What outcome does the record of this test show for CCOc1cc(CNC2CCCC2)cc(Cl)c1OCc1ccc(Cl)cc1 ?
t

Query: recorded result category for CC1(C)SC2C(NC(=O)[C@H](C(=O)O)c3ccsc3)C(=O)N2C1C(=O)O (stereo not given in full) in this test
f
